- TARGET: T1, Lsb1, P53281
- T1 sequence (P53281 45-122, looked up): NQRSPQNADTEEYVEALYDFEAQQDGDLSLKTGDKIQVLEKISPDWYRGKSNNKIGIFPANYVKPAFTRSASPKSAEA
- TEST SUMMARY: SPOT array
- CONDITION LABEL: median of control spots 388
OBSERVED PROPERTY: SPOT intensity

Example binders with recorded SPOT intensity:
HHKRRPTTIDVPGLT 1
RVRKTHVPASKRPSG 0
TPEIPPPLPPKIMVH 0

P. LKHGWKPLRPIKLIS
Q. FPGKKSPRLPHRNKK
R. KMSRSPPRPPSLKII
INPUT: Sort entries by SPOT intensity from minimum to maximum value. // respond by listing labels in the order requested
OUTPUT: P, Q, R
(P: 0, Q: 5, R: 140)
